Task for the reader: assign each of the following molecules its reported CC50 at 24 h.
test: in vitro; design: resazurin reduction viability assay, fluorescence, cytotoxicity on murine macrophages; conditions: mouse, raw macrophages; read-out: CC50 (µg/mL) Raw264.7

Example results:
                                   molecule  attribute_measured     observed
0  C#CCCCCCCC[C@@H]1C(=O)O[C@H]1CCC (racemic) [VM052p]        CC50 at 24 h  > 125 µg/mL
1  C#CCCCCCCCCCC1C(=O)OC1CCC (stereo not shown) [VM051p]        CC50 at 24 h  > 125 µg/mL
2  CCCCCCCCOCCCCCCCCC1C(=O)OC1CCC (stereo not shown)        CC50 at 24 h  > 125 µg/mL

Okay, here is my list. What is CC50 at 24 h for each of these?
1. C#CCCCC1C(=O)OC1CCC (stereo not shown) [VM049p, 3-(Pent-4-yn-1-yl)-4-propyloxetan-2-one]
2. CCC[C@@H]1OC(=O)[C@H]1CCCCCCCCN=[N+]=[N-] (racemic) [VM055p]
3. CCCCCCCC/C=C\CCCCCCCC[C@@H]1C(=O)O[C@@H]1CCC (racemic)
4. CCCCCCCC/C=C\CCCCCCCC[C@@H]1C(=O)O[C@H]1CCC (racemic)
5. CCCCCCCC/C=C\CCCCCC[C@@H]1C(=O)O[C@@H]1CCCCCC (racemic)

Result:
68.1 µg/mL
> 125 µg/mL
> 125 µg/mL
> 125 µg/mL
> 125 µg/mL

Okay, here is my list. What is CC50 at 24 h for each of these?
1. C#CCCC1OC(=O)C1CCCCCCCCCCCC (stereo not shown) [VM054p, 4-(But-3-yn-1-yl)-3-dodecyloxetan-2-one]
2. CCCCCCCC/C=C\CCCCCCCCC1C(=O)OC1CCC (stereo not shown)
3. C#CCCCCCC[C@@H]1C(=O)O[C@H]1CCC (racemic) [VM053p]
4. CCCCCCCC/C=C\CCCCCCC[C@@H]1OC(=O)[C@H]1CCC (racemic)
5. CCCCCCCCCCC1C(=O)OC1CCC (stereo not shown)

Result:
1: > 125 µg/mL; 2: > 125 µg/mL; 3: > 125 µg/mL; 4: > 125 µg/mL; 5: > 125 µg/mL

Okay, here is my list. What is CC50 at 24 h for each of these?
1. CCCCCCCCOCCCCCCCCC1(F)C(=O)OC1CCC (stereo not shown)
2. CCCCCC[C@@H]1C(=O)O[C@H]1CCC (racemic) [VM019, (±)-trans 3-Hexyl-4-propyloxetan-2-one]

Result:
["> 125 µg/mL", "> 125 µg/mL"]

Okay, here is my list. What is CC50 at 24 h for each of these?
1. CCCCCCCC(=O)NCCCCCCC1C(=O)OC1CCC (stereo not shown)
2. CCCCCCCCC1(F)C(=O)OC1CCC (mixture of isomers)
3. CCCCCCCC[C@@H]1C(=O)N[C@H]1CCC (racemic) [VM057, (±)-trans 3-Octyl-4-propylazetidin-2-one]
4. CCCCCCCCCC[C@@H]1C(=O)O[C@H]1CCC (racemic) [VM026, (±)-trans 3-Decyl-4-propyloxetan-2-one]

Result:
> 125 µg/mL
> 125 µg/mL
52.7 µg/mL
> 125 µg/mL

Okay, here is my list. What is CC50 at 24 h for each of these?
1. CCCCCCCC[C@@H]1C(=O)O[C@@H]1CCC (racemic) [VM039, (±)-cis 3-Octyl-4-propyloxetan-2-one]
2. CCCCCCCC/C=C\CCCCCCC[C@H]1OC(=O)[C@H]1CCC (racemic)
3. CCCCCCCCCCCCC1(F)C(=O)OC1CCC (stereo not shown)

Result:
["119 µg/mL", "> 125 µg/mL", "> 125 µg/mL"]

Okay, here is my list. What is CC50 at 24 h for each of these?
1. CCCCCCCC[C@@H]1C(=O)O[C@H]1CCC (racemic) [VM038, (±)-trans 3-Octyl-4-propyloxetan-2-one]
2. CCCCCCCCCCCC[C@@H]1C(=O)O[C@H]1CCC (racemic) [VM040, (±)-trans 3-Dodecyl-4-propyloxetan-2-one]
3. CCCCCCCC/C=C\CCCCCC[C@@H]1C(=O)O[C@@H]1CC (racemic)
4. CCCCCCCCC1C(=O)NC1CCC (stereo not shown)
5. CCCCCCCC/C=C\CCCCCC[C@@H]1C(=O)O[C@H]1CCCCCC (racemic)
6. CCCCCCCC/C=C\CCCCCC[C@@H]1C(=O)O[C@@H]1CCCCCCCCC (racemic)

Result:
["> 125 µg/mL", "> 125 µg/mL", "> 125 µg/mL", "40.1 µg/mL", "> 125 µg/mL", "> 125 µg/mL"]

Okay, here is my list. What is CC50 at 24 h for each of these?
1. CCCCCCCCCC[C@@H]1C(=O)O[C@@H]1CCC (racemic) [VM027, (±)-cis 3-Decyl-4-propyloxetan-2-one]
2. CCCCCCCCCCCC[C@@H]1C(=O)O[C@@H]1CCC (racemic) [VM041, (±)-cis 3-Dodecyl-4-propyloxetan-2-one]
3. CCCCCCCC/C=C\CCCCCCC1(F)C(=O)OC1CCC (stereo not shown)
4. C#CCCC[C@@H]1C(=O)O[C@H]1CCC (racemic) [VM050p]
5. CCCCCCCCCCCCC1C(=O)NC1CCC (stereo not shown)

Result:
["> 125 µg/mL", "> 125 µg/mL", "> 125 µg/mL", "44.1 µg/mL", "30.6 µg/mL"]

Ask: // returns reported CC50 at 24 h for input CCCCCCNC(=O)CCCCCCCC1C(=O)OC1CCC (stereo not shown)
Result: > 125 µg/mL

Provenance of the data: paper PMC12101465
